# target entity: T1, EsCas13d, nuclease-dead (Eubacterium siraeum, UniProt B0MS50, R295A;H300A;R849A;H854A)
# T1 sequence: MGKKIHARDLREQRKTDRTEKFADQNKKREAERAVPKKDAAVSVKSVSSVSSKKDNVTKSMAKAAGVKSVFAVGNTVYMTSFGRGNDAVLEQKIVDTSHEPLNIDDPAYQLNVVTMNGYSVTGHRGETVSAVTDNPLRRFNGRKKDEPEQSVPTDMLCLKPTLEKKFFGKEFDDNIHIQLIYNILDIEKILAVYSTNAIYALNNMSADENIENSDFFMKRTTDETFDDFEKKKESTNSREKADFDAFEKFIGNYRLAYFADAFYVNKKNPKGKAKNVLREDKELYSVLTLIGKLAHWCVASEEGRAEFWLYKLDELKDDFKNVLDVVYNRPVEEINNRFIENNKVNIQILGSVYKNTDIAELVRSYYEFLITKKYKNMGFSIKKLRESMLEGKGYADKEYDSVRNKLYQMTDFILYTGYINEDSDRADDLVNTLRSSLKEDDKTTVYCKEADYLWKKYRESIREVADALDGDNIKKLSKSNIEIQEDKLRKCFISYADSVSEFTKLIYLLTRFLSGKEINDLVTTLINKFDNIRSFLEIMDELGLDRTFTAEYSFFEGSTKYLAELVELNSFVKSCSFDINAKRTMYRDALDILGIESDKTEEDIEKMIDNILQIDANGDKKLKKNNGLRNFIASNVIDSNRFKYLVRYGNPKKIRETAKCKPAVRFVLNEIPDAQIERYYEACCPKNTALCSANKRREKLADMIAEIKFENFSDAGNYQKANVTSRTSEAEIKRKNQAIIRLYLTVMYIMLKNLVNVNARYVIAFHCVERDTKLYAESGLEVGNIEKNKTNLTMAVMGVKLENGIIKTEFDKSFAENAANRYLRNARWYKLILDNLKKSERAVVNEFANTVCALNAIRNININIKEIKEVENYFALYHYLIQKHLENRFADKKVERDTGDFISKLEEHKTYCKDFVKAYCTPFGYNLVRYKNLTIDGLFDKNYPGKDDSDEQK
# assay notes: crRNA (strand 1, pre-loaded); Mg2+; 40 mM Tris-HCl pH 7.5, 150 mM NaCl, 6 mM MgCl2, 1 mM DTT, 0.1% Tween-20, 0.2 mg/ml BSA; 25 C; 10 min per concentration, then washed
# test parameters: tags: His6-TwinStrep-SUMO cleaved; N-terminal SNAP kept (SNAP-Surface 488); label: 3' end held by stalled T7 RNA polymerase
pKd: −log10 of the molar value.
Quick rule for you: pKd at 8 or higher means true (1), lower means false (0).

binder: target 1 insU 3' of 9,insA 3' of 2 (mixed) RNA 1: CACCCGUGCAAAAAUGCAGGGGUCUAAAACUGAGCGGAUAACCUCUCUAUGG RNA 2: GGGAAUGGAUCCACAUCUACGAAUUCGUACCAUAGAGAGGUUAUUCCGCUCAACCGAGAUCGGAAGAGCACACGU
discrete label: false (0)

Request: In plain terms: is recorded pKd at least 8 for target 3 C1U,U2A (mixed) RNA 1: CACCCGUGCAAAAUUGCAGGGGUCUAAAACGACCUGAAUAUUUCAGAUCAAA RNA 2: GGGAAUGGAUCCACAUCUACGAAUUCGUUUUUGAUCUGAAAUAUUCAGGAUUGCAGAUCGGAAGAGCACACGU ?
Response: false (0)

Request: In plain terms: is recorded pKd at least 8 for target 1 insG 3' of 18,insA 3' of 6 (mixed) RNA 1: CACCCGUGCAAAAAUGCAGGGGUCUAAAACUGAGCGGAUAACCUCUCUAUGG RNA 2: GGGAAUGGAUCCACAUCUACGAAUUCGUACCAUAGGAGAGGUUAUCCAGCUCACCGAGAUCGGAAGAGCACACGU ?
Response: false (0)

Request: In plain terms: is recorded pKd at least 8 for target 2 MT 5'PFS CGC 3'PFS AUC (mixed) RNA 1: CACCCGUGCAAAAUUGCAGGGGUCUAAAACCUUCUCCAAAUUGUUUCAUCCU RNA 2: GGGAAUGGAUCCACAUCUACGAAUUCCGCAGGAUGAAACAAUUUGGAGAAGAUCAGAUCGGAAGAGCACACGU ?
Response: true (1)

Cited source: paper PMC10786891
